Molecular target: Voltage-dependent N-type calcium channel subunit alpha-1B (Homo sapiens) (UniProt Q00975)
Sequence (Q00975 whole entry, looked up): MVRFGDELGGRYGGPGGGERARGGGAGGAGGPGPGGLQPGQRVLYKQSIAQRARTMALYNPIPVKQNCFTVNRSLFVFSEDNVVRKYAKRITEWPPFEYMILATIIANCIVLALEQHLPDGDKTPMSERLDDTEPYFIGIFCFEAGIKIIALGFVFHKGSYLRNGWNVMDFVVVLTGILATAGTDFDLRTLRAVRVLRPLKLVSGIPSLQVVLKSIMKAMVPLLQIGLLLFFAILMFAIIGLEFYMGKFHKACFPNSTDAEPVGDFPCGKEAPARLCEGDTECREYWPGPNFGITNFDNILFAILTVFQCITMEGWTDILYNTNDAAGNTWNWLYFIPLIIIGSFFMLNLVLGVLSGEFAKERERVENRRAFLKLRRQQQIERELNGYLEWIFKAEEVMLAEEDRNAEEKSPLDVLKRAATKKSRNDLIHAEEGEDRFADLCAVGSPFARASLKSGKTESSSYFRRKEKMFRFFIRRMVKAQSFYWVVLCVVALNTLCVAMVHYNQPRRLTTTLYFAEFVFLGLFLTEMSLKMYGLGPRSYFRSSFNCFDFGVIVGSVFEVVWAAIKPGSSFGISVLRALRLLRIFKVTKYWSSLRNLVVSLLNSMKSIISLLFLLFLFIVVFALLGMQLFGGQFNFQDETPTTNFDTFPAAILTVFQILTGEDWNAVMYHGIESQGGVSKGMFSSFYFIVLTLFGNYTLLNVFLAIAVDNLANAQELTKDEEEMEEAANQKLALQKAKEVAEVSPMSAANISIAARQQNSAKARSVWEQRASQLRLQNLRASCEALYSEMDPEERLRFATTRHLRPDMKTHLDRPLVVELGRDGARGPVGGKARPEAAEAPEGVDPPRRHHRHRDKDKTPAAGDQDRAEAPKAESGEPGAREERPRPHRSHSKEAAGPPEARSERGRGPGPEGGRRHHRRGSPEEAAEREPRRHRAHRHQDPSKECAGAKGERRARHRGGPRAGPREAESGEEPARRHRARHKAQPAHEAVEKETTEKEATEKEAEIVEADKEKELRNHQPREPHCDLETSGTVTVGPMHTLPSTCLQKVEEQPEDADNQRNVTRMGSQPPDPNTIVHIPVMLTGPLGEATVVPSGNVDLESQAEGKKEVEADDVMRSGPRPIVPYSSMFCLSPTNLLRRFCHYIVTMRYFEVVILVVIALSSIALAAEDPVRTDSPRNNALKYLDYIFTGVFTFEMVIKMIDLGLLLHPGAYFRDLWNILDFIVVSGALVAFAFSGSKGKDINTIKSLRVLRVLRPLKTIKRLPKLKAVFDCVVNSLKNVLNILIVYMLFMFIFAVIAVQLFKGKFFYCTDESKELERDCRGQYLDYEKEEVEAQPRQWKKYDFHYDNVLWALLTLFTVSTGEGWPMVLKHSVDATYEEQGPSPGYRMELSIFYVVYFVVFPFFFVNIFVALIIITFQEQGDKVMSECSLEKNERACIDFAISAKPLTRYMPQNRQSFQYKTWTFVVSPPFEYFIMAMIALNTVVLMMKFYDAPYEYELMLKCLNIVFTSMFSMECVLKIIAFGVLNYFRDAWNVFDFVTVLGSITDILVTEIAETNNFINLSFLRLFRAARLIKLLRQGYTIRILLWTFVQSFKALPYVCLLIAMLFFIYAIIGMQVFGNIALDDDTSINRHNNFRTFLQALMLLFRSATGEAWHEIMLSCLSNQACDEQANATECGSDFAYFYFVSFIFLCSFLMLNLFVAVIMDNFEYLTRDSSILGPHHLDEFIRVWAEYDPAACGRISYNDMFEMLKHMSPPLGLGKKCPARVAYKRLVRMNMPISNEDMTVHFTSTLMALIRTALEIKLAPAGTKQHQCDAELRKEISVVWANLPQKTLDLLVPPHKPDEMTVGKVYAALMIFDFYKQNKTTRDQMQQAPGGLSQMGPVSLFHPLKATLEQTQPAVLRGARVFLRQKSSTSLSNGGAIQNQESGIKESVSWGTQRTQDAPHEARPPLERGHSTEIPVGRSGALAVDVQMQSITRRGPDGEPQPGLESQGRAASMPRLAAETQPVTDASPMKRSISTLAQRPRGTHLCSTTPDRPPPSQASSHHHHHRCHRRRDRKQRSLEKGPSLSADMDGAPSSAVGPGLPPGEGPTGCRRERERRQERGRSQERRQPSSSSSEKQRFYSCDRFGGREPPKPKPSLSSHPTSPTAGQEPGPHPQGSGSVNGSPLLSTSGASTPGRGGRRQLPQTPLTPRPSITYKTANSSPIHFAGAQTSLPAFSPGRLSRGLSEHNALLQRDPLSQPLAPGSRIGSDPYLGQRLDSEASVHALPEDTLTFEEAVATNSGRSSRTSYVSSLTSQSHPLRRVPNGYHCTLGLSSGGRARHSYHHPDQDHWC
Assay: disruptors of CaV2.2 binding to Mint1 – biochemical, HTRF (AID 2073)
Conditions: HTRF protein-protein interaction, Mint1-CaV2.2; at 20 µM; active compounds read high
Hit rate of the full screen: of about 290,000 compounds, about 570 (0.2%) were called active. Inconclusive results (about 1%) are left out. Only a selection was taken, and actives are over-represented in it overall.
measurement name: inhibition (%)
Form entry: value (%) — number only.

Worked examples follow.
COc1ccc(-c2nn(-c3ccccc3)cc2/C=C(/C#N)C(N)=O)cc1[N+](=O)[O-] :: 54.4
N#Cc1c(N)n(Cc2ccccc2)c(=O)c2cc([N+](=O)[O-])ccc12 :: 2
CCc1ccc2nc(N(CCCN(C)C)C(=O)c3ccc(S(=O)(=O)N4CCCC4)cc3)sc2c1 :: -0.7
Cn1nc(-c2ccccc2)cc1NC(=O)Nc1ccc(F)cc1 :: -0.7
Cc1ccc(-n2nnnc2SCc2nc3sc(C)c(C)c3c(=O)[nH]2)cc1 :: 12

The reported inhibition of the compound O=[N+]([O-])c1ccc(N/N=C/c2sc(N3CCOCC3)nc2-c2ccccc2)c(S(=O)(=O)Nc2ccccc2Cl)c1 was 30.5

Value of inhibition reported for the compound Cc1ccc(NS(=O)(=O)c2cc([N+](=O)[O-])ccc2N/N=C/c2sc(N3CCOCC3)nc2-c2ccccc2)c(C)c1 is 31.1

Reported inhibition ( CCOc1ccc(C(CCc2ccccc2)NC(=O)c2ccccc2F)cc1OCC (stereo not given) ) = 5.7

The reported value for O=c1c2c([N+](=O)[O-])cc([N+](=O)[O-])cc2sn1Cc1ccccc1 in terms of inhibition is 43.2

Per the record, O=C(CC1C(=O)NCCN1Cc1cccc(F)c1)NCCCOc1cccnc1 (stereo not given) has inhibition of 0.9

* * *

Target: Voltage-dependent N-type calcium channel subunit alpha-1B (Homo sapiens)
Experiment: disruptors of CaV2.2 binding to Mint1 – biochemical, HTRF (AID 2073)
Settings: HTRF protein-protein interaction, Mint1-CaV2.2; at 20 µM; active compounds read high
In all, about 290,000 compounds went through this assay and about 570 (0.2%) were called active. About 1% were inconclusive and are not listed. Shown is part of a subset that was picked to be rich in actives.
measurement name: inhibition (%)
Give just the numeric value; % need not be written.

Lab note: O=C(Nc1cccc(S(=O)(=O)NC2=NCCCCC2)c1)c1cc(-c2ccco2)nc2ccccc12 gave inhibition of 40.5

* * *

Molecular target: Voltage-dependent N-type calcium channel subunit alpha-1B (Homo sapiens) (UniProt Q00975)
Test: disruptors of CaV2.2 binding to Mint1 – biochemical, HTRF (AID 2073)
Settings: HTRF protein-protein interaction, Mint1-CaV2.2; at 20 µM
The whole screen tested about 290,000 compounds, of which about 570 (0.2%) were called active. Not shown: some 1% with an inconclusive outcome. Rule as the data show it: active = inhibition mostly above about 51% (no sharp cut-off); inconclusive = no clear call, values can overlap the other calls; inactive = mostly below about 53%. The entries come from a sample that favours actives as a whole.
Answer with one of the outcomes Yes (active), No (inactive)

N#C/C(C(N)=O)=c1/ccc2c(c1)N1C3=C(CCCC3)CC3CCCCC31N=2 (stereo not drawn) :: No
Cc1oc(-c2ccccc2F)nc1CS(=O)(=O)CC(=O)N1CCCCCC1 :: No
Nc1nnnn1/N=C/c1ccccc1OCc1ccc(Cl)cc1 :: No
COc1ccccc1CNc1cc(CSc2ccc(Cl)cc2)nc(C)n1 :: No
CC(=O)Sc1nc(-c2ccccc2)[nH]c1S(=O)(=O)c1ccc(C)cc1 :: Yes
Cc1ccn2c(Nc3ccccc3C)c(-c3ccccn3)nc2c1 :: No

Short answer needed: outcome of this test for Cc1ccc(C(=O)N(CC(=O)NC2CCCC2)c2ccc3c(c2)OCCO3)s1 ?
No

// param item: Cc1ccc(Nc2c(-c3ccccn3)nc3cc(C)ccn23)cc1 ; yields the recorded call
Yes

Please indicate how the test categorized Cc1c(Cl)cccc1NC(=O)CCCN1C(=O)c2cccnc2C1=O .
No

Please indicate how the test categorized Fc1ccccc1N1CCN(C2CCCN(Cc3ccccc3C(F)(F)F)C2)CC1 (stereo not drawn) .
No

What was the test verdict on O=C1c2cccc3c(N4CCCCC4)ccc(c23)C(=O)N1CCO ?
No

* * *

Biological target: Voltage-dependent N-type calcium channel subunit alpha-1B (Homo sapiens) (UniProt Q00975)
Assay: disruptors of CaV2.2 binding to Mint1 – biochemical, HTRF (AID 2073)
Conditions: HTRF protein-protein interaction, Mint1-CaV2.2; at 20 µM
Hit rate of the full screen: of about 290,000 compounds, about 570 (0.2%) were called active. About 1% were inconclusive and are not listed. No stated cut-off is given here; in the data, active means inhibition mostly above about 51% (no sharp cut-off); inconclusive means no clear call, values can overlap the other calls; inactive means mostly below about 53%. Only a selection was taken, and actives are over-represented in it overall.
Returns: one label drawn from 1 (active), -1 (inactive)

Known results for compounds:
O=C(CSc1nnc(-c2ccccc2O)o1)Oc1ccc(Br)cc1 :: -1
CCCOc1ccc(/C=C2\SC(N)=NC2=O)cc1OC :: -1
O=C(COC(=O)/C=C/c1ccco1)NCc1ccco1 :: 1

Given O=C(COC(=O)c1cccs1)NCc1ccco1 , state the outcome it received in this test.
-1

Answer briefly: the call reported for NC1=NC[C@@H](Cc2ccc(O)cc2)N1CCc1cccc(F)c1 in this assay.
-1

Test call for this compound, please: Cc1cc(C(=O)COC(=O)Cn2c(C(F)(F)F)nc3ccccc32)c(C)n1Cc1ccco1
-1

Just curious, what result did O=C(COC(=O)/C=C/c1ccc(F)cc1)NCc1ccco1 get here?
-1

* * *

Molecular target: Voltage-dependent N-type calcium channel subunit alpha-1B (Homo sapiens)
Assay: disruptors of CaV2.2 binding to Mint1 – biochemical, HTRF (AID 2073)
Details: HTRF protein-protein interaction, Mint1-CaV2.2; at 20 µM; active compounds read high
Hit rate of the full screen: of about 290,000 compounds, about 570 (0.2%) were called active. Inconclusive results (about 1%) are left out. What follows is part of a selection rich in actives, with near analogues and random picks from the rest.
measurement name: inhibition (%)
Give your result in % as a bare value.

Sample records with inhibition:
COC(=O)c1c(NC(=O)COC(=O)c2ccccc2O)sc2c1CCCCC2 :: -3
CC(=O)c1ccc(NC(=O)c2cc3nc4c(c(C(F)(F)F)n3n2)CCCC4)cc1 :: 33.2
O=C(Nc1cccc(Cl)c1)Nc1nnc(-c2ccncc2)s1 :: 56.2
CCOC(=O)c1ccc(N2C(=O)CC(C(=O)OC)=C2C)cc1 :: 3.2
Fc1cccc2sc(Nc3nnc(-c4ccccc4)o3)nc12 :: 38.5

response.value for O=C(Nc1ccc(F)cc1)Nc1nnc(-c2ccncc2)s1 (field: inhibition) = 50.5

// inhibition value for O=C(c1ccc(COc2ccc(F)cc2)o1)n1cc(Br)cn1 : 8

The compound identified as COc1ccccc1-c1cc(C(=O)Nc2cc(C)n(Cc3ccc(Cl)cc3)n2)no1 registered its inhibition at 7.9

* * *

Listing of recorded inhibition by entry.
Target: Voltage-dependent N-type calcium channel subunit alpha-1B (Homo sapiens) (UniProt Q00975)
Experiment: disruptors of CaV2.2 binding to Mint1 – biochemical, HTRF (AID 2073)
Details: HTRF protein-protein interaction, Mint1-CaV2.2; at 20 µM; active compounds read high
The campaign covered roughly 290,000 compounds. About 570 (0.2%) were called active. Roughly 1% stayed inconclusive and do not appear here. For the sample, actives were picked, then their nearest neighbours and some compounds at random.
I only need the number, in %, no unit after it.

Use the examples below as a reference point.
CSc1nc(-c2ccco2)cc(-c2ccccc2)c1C#N :: 15.4
Cc1cc(C)c2nc(NC(=O)c3cccc(S(=O)(=O)N4CCc5ccccc54)c3)sc2c1 :: 6.3
COc1cc(C2CC(=O)N3CN(Cc4ccco4)CSC3=C2C#N)ccc1OCc1ccccc1 (stereo unspecified) :: 84.8
Cc1ccc(N2C(=O)C3C4CC(=O)C(c5ccccc54)C3C2=O)cc1C (stereo unspecified) :: -1.5
Cc1ccc(S(=O)(=O)N(C)CC(=O)OCC(=O)N2CCCC2=O)cc1 :: -12.9
COc1cccc(NC(=O)c2ccc(-c3ccccc3[N+](=O)[O-])o2)c1 :: 52.1
CCCCc1nc2sc3c(=O)n(N)cnc3c2c2c1CCCC2 :: 8.9
O=C(N/N=C/c1ccccc1)c1ccc(CN2C(=O)c3cccc4cccc2c34)cc1 :: 36.4

Notebook: O=C(O)C(Cc1c[nH]c2ccccc12)NS(=O)(=O)c1ccc(Br)cc1 (stereo unspecified) , inhibition read as -0.4

Measured inhibition of Cc1cc(Cl)cc(Cl)c1OCC(=O)NCc1ccco1 : -1.4

Value of inhibition reported for the compound COc1ccc(-c2ccc(C(=O)O)o2)c([N+](=O)[O-])c1 is 59.6

inhibition reported for this compound COC(=O)C1=C(C(=O)OC)[C@@H]2N(C)c3ccc(OC)cc3[C@@]23C[C@@H](C(=O)OC)N(C(=O)c2ccc(Br)cc2)C3=N1 : 6.3
